Task for the reader: assign each of the following compounds its reported T/C.
- Tested on: P388 leukemia ip, CD2F1 mice, survival T/C
- test_summary: NCI In Vivo Anticancer Drug Screen. Data for tumor model P388 Leukemia (intraperitoneal) in CD2F1 (CDF1) mice
- condition_parameters: endpoint: median survival time; dose: 100.0 mg/kg/injection; schedule: Q01DX005 (ip); vehicle: Klucel (hydroxypropylcellulose) (HPC); higher = longer survival
Inconclusive results and toxic doses are left out.

Ask: Would you kindly share the measured T/C for COc1ccc2c3c([nH]c2c1)[C@H]1C[C@H]2[C@H](C[C@@H](O)[C@H](OC)[C@H]2CO)CN1CC3 ?
Result: 95 % of control

Ask: Would you kindly share the measured T/C for COc1ccccc1N=NNc1ccc(S(=O)(=O)NC(C)=O)cc1 ?
Result: 114 % of control

Ask: Would you kindly share the measured T/C for c1ccc2c(c1)[nH]c1c2nc2ncccn21 ?
Result: 106 % of control

Ask: Would you kindly share the measured T/C for O=C1OC(c2ccccc2Br)=N/C1=C/c1ccccc1 ?
Result: 91 % of control

Ask: Would you kindly share the measured T/C for CC1CN(C(=O)/C=C/C(=O)OC2CCCCC2)CCN1C(=O)/C=C/C(=O)OC1CCCCC1 (stereo not given) ?
Result: 100 % of control
